pIC50: recorded values
- target: hERG channel (Homo sapiens, UniProt Q12809)
- Construct: expressed in transfected cells
- Sequence (Q12809 whole entry): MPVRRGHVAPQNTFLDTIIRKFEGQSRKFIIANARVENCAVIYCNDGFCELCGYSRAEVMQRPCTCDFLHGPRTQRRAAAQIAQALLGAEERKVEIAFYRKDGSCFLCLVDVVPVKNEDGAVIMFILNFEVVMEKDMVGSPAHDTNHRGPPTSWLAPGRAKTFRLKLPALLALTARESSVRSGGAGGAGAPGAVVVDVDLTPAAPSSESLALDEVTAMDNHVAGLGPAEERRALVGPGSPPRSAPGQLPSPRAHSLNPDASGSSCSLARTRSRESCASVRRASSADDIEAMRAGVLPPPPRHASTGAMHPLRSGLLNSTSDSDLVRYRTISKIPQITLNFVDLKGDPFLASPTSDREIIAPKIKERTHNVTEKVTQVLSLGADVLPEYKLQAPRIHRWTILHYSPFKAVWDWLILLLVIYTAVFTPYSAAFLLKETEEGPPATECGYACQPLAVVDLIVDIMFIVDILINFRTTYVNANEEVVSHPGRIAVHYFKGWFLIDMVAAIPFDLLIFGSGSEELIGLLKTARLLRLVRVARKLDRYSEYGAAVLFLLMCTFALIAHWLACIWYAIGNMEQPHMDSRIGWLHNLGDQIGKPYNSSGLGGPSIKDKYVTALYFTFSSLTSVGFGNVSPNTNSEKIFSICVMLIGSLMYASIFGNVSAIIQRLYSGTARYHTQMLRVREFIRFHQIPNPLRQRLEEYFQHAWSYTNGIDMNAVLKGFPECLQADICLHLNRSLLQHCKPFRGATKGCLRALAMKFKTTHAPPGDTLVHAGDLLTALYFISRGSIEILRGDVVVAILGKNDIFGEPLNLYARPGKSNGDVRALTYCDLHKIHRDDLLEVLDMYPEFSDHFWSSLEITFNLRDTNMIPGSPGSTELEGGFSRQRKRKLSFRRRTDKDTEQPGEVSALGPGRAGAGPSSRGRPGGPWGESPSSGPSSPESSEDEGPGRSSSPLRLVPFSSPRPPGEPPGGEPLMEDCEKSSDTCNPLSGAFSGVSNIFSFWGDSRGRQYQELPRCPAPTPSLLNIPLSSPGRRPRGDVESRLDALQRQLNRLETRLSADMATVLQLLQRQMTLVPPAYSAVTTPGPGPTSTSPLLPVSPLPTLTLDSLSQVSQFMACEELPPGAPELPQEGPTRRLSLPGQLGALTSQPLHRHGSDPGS
- method: hERG electrophysiology, automated whole-cell patch clamp (Patchliner)
- Assay type: cell-based
- applied conditions: Table 6; CHO-K1 cells stably expressing hERG; whole cell current, tail current protocol; read-out: hERG_IC50
pIC50: −log10 of the molar value.

• O=C(NC(c1ccncc1)c1cc(Cl)c(Cl)cc1O)C1CNC1 (stereo not shown) [Compound 26] = < 4.52

Task item: Give its pIC50 value. Item: NCc1cc(C(O)c2c(O)ccc(Cl)c2Cl)ccn1 (stereo not shown) [Compound 28]
Reply: < 4.52

Task item: What does the record list as pIC50 for NC(c1ccncc1)c1cc(Cl)c(Cl)cc1O (stereo not shown) [Compound 6] ?
Reply: < 4.52

Task item: Form field: reported pIC50 of NC(c1ccncc1)c1c(O)ccc(Cl)c1Cl (stereo not shown) [Compound 11]
Reply: < 4.52

Task item: Item Nc1ccc(Cc2cc(Cl)c(Cl)cc2O)cn1 [Compound 8] has what recorded pIC50?
Reply: > 4.52

Task item: Recorded pIC50 for Oc1ccc(Cl)c(Cl)c1C(O)c1ccncc1 (single isomer, unassigned) [Compound 37] , please?
Reply: < 4.52

Task item: Item under review: CC(=O)NC(c1ccncc1)c1c(O)ccc(Cl)c1Cl (single isomer, unassigned) [Compound 41] . Reported pIC50?
Reply: < 4.52

Task item: // query pIC50 value for entry Oc1ccc(Cl)c(Cl)c1C(O)c1ccncc1 (single isomer, unassigned) [Compound 34]
Reply: < 4.52

###

- target: Kv1.3 potassium channel (Homo sapiens)
- Construct: expressed in transfected cells
- Sequence (P22001 whole entry): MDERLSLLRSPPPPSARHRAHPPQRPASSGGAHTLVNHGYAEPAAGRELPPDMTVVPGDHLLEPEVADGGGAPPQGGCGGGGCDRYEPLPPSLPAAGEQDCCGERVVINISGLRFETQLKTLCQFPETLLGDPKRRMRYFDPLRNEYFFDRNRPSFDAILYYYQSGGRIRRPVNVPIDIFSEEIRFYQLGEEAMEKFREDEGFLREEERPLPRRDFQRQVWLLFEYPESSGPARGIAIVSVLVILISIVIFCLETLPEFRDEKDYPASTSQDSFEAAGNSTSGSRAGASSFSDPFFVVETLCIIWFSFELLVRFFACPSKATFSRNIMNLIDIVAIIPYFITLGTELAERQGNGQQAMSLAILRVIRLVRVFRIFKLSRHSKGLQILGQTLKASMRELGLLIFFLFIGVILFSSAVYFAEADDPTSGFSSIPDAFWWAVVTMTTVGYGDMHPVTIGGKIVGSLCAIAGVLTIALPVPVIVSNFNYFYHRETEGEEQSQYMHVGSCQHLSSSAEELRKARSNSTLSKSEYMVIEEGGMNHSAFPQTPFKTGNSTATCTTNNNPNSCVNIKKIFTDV
- method: Kv1.3 potassium channel blocker activity, automated whole-cell patch clamp (Patchliner)
- Assay type: cell-based
- applied conditions: Table 7; CHO-K1 cells stably expressing Kv1.3; whole cell current, pulses -90 mV to +40 mV; read-out: Kv1.3_IC50
- Experimental: Example 67. Evaluation of Kv1.3 Potassium Channel Blocker Activities The assay described below is used to evaluate the disclosed compound's activities as Kv1.3 potassium channel blockers. CHO-K1 cells stably expressing Kv1.3 were grown in DMEM containing 10% heat-inactivated FBS, 1 mM Sodium Pyruvate, 2 mM L-Glutamine and G418 (500 μg/ml). Cells were grown in culture flasks at 37° C. in a 5% CO2-humidified incubator. […]
readout label: IC50

Solved cases below.
* C[C@H](NC(=O)[C@@H](O)CO)c1c(O)ccc(Cl)c1Cl | < 10 µM
* C[C@H](NC(=O)C1CNC1)c1c(O)ccc(Cl)c1Br | < 1 µM
* C[C@@H](NC(=O)[C@H]1CCCNC1)c1c(O)ccc(Cl)c1Cl | < 1 µM
* C[C@H](NC(=O)[C@H](O)CO)c1c(O)ccc(Cl)c1Cl | < 10 µM
* Cc1cc(O)c(C(N)CNC(=O)CO)cc1Cl (stereo not drawn) | < 10 µM
* C[C@H](NC(=O)C1CN(CCO)C1)c1c(O)ccc(Cl)c1Cl | < 1 µM

Task item: IC50 for CC(NC(=O)C1CNCCO1)c1c(O)ccc(Cl)c1Cl (stereo not drawn) ?
Reply: < 10 µM

Task item: Fill in the blank: the reported IC50 of CC(NC(=O)C1CNC1)c1c(O)ccc(Br)c1Cl (stereo in doubt) is ____.
Reply: < 1 µM

Task item: Quick one: IC50 of `Cc1cc(O)c([C@@H](N)CNC(=O)C2CNC2)cc1Cl` ?
Reply: < 10 µM

###

- target: Kv1.3 potassium channel (Homo sapiens)
- Construct: expressed in transfected cells
- method: Kv1.3 potassium channel blocker activity, automated whole-cell patch clamp (Patchliner)
- Assay type: cell-based
- applied conditions: Table 7; CHO-K1 cells stably expressing Kv1.3; whole cell current, pulses -90 mV to +40 mV; read-out: Kv1.3_IC50
IC50 values for the compounds below.

- C[C@H](NC(=O)C1CCNCC1)c1c(O)ccc(Cl)c1Cl [Compound 90]: < 1 µM

Task item: Fill blank: measured IC50 of the compound Cc1cc(O)c([C@H](N)CNC(=O)C2CNC2)cc1Cl [Compound 94] is ____.
Reply: < 1 µM

Task item: Quick check: IC50 of C[C@H](NC(=O)C1CNC1)c1cc(Cl)c(Cl)cc1O [Compound 86] ?
Reply: < 10 µM

###

IC50: recorded values
- target: Kv1.3 potassium channel (Homo sapiens)
- Construct: expressed in transfected cells
- method: Kv1.3 potassium channel blocker activity, automated whole-cell patch clamp (Patchliner)
- Type: cell-based
- applied conditions: Table 6; CHO-K1 cells stably expressing Kv1.3; whole cell current, pulses -90 mV to +40 mV; read-out: Kv1.3_IC50

• COCC(=O)NC(c1ccncc1)c1c(O)ccc(Cl)c1Cl (centres unmarked) [Compound 63] = < 10 µM

Task item: For the molecule shown here, O=C(NC(c1ccncc1)c1c(O)ccc(Cl)c1Cl)C1CNC1 (single isomer, unassigned) [Compound 49] , give the reported IC50.
Reply: < 10 µM

Task item: Name the reported IC50 value associated with the molecule O=C(N[C@H](c1ccncc1)c1c(O)ccc(Cl)c1Cl)[C@H]1CCCN1 (single isomer, unassigned) [Compound 66]
Reply: < 30 µM

Task item: What does the data say about its IC50? Entry: Oc1ccc(Cl)c(Cl)c1C(O)c1cn[nH]c1 (centres unmarked) [Compound 56]
Reply: < 10 µM

Task item: Item NC(=O)c1ccc(C(N)c2cc(Cl)c(Cl)cc2O)cc1 (centres unmarked) [Compound 13] has what recorded IC50?
Reply: < 10 µM

Task item: For the molecule NC(c1ccc2c(c1)CNC2)c1cc(Cl)c(Cl)cc1O (centres unmarked) [Compound 21] , what IC50 is on record?
Reply: < 1 µM

Task item: Look up IC50: Nc1ccc(C(N)c2cc(Cl)c(Cl)cc2O)cn1 (centres unmarked) [Compound 12]
Reply: < 10 µM

Task item: Query (molecule): O=C(NC(c1ccncc1)c1c(O)ccc(Cl)c1Cl)C1CNC1 (single isomer, unassigned) [Compound 50] ; field requested: IC50
Reply: < 1 µM

Task item: GET /values?readout=IC50&item= N#Cc1cc(C(O)c2c(O)ccc(Cl)c2Cl)ccn1 (centres unmarked) [Compound 30]
Reply: < 10 µM

Task item: Value lookup for IC50; key = CC(=O)CC(c1ccncc1)c1c(O)ccc2ccccc12 (centres unmarked) [Compound 18]
Reply: < 10 µM

Task item: Query (molecule): O=C(c1ccncc1)c1c(O)ccc(Cl)c1Cl [Compound 61] ; field requested: IC50
Reply: < 10 µM

Task item: Consider the molecule CN(C(=O)C1CNC1)C(c1ccncc1)c1c(O)ccc(Cl)c1Cl (centres unmarked) [Compound 71] and give its measured IC50.
Reply: < 30 µM

Task item: GET /values?readout=IC50&item= NC(c1cn[nH]c1)c1c(O)ccc(Cl)c1Cl (centres unmarked) [Compound 7]
Reply: < 30 µM

Task item: Which IC50 is listed for Oc1ccc(Cl)c(Cl)c1C(O)c1ccc2cc[nH]c2c1 (centres unmarked) [Compound 48] ?
Reply: < 10 µM

Task item: Tell me the measured IC50 of CN1CC(C(=O)NC(c2ccncc2)c2c(O)ccc(Cl)c2Cl)C1 (centres unmarked) [Compound 73] , please.
Reply: < 1 µM

Task item: What value of IC50 has been reported for the following molecule? Oc1ccc(Cl)c(Cl)c1C(O)c1cnccn1 (centres unmarked) [Compound 54]
Reply: < 10 µM

Task item: Which IC50 value belongs to Oc1ccc(Cl)c(Cl)c1Cc1ccncc1 [Compound 22] ?
Reply: < 10 µM

Task item: Could you tell me which IC50 is on file for CC(c1ccncc1)c1c(O)ccc(Cl)c1Cl (centres unmarked) [Compound 25] ?
Reply: < 10 µM

Task item: Please report the recorded IC50 for O=C(NC(c1ccncc1)c1cc(Cl)c(Cl)cc1O)C1CNC1 (centres unmarked) [Compound 26] .
Reply: < 1 µM

Task item: Quick one: IC50 of CC(=O)NC(c1ccncc1)c1cc(Cl)c(Cl)cc1O (centres unmarked) [Compound 19] ?
Reply: < 10 µM

Task item: Suppose we examine the molecule NC(c1ccccc1)c1c(O)ccc(Cl)c1Cl (centres unmarked) [Compound 3] ; what IC50 value has been reported?
Reply: < 30 µM

Task item: Need IC50, item Cn1cc(C(O)c2c(O)ccc(Cl)c2Cl)ccc1=O (centres unmarked) [Compound 60]
Reply: < 1 µM

Task item: // lookup IC50 for NC(c1ccncc1)c1c(O)ccc(Cl)c1Cl (centres unmarked) [Compound 11]
Reply: < 10 µM

Task item: For Nc1cc(C(O)c2c(O)ccc(Cl)c2Cl)ccn1 (centres unmarked) [Compound 36] , what is its reported IC50?
Reply: < 1 µM

Task item: Form field: reported IC50 of NC(=O)c1cc(Cc2c(O)ccc(Cl)c2Cl)ccn1 [Compound 24]
Reply: < 10 µM

Task item: Given Nc1cc(C(O)c2c(O)ccc(Cl)c2Cl)ccn1 (single isomer, unassigned) [Compound 45] , state its recorded IC50.
Reply: < 1 µM

The reported numbers originate from patent US20230131535A1.
